# target.system: CaV2.2 (Homo sapiens)
# assay.info: VIPR optical membrane potential assay with electrical stimulation, CaV2.2
# test.parameters: Table 9, CaV 2.2 receptors
pIC50: −log10 of the molar value.
attribute.measured: pIC50

Solved cases (5 shown):
{"columns": ["compound", "observed.result"],
 "data": [
  ["COc1cccc(CN(C(=O)c2cnc(N3CCSCC3)nc2-c2ccccc2F)C(C)C)c1 [compound 131]", "> 5.70"],
  ["CC(C)N(C(=O)c1cnc(N2CCOCC2)nc1-c1ccccc1F)c1ccc2c(c1)OCCO2 [compound 67]", "< 5.00"],
  ["COc1ccc(CCN(C)c2ncc(C(=O)N3CC(C)CC(C)C3)c(-c3ccc(C#N)cc3)n2)cc1OC (stereo not drawn) [compound 285]", "< 5.00"],
  ["CCN(Cc1cccc(C)c1)C(=O)c1cnc(N2CCOCC2)nc1-c1ccc(C#N)cc1 [compound 247]", "< 5.00"],
  ["O=C(NCC1CC1)c1cnc(N2CCOCC2)nc1-c1ccccc1F [compound 212]", "< 5.00"]
]}

# context switch: different compound, same pIC50
### Prompt Any idea what pIC50 was measured for CC(C)N(Cc1ccc2c(c1)OCO2)C(=O)c1cnc(N2CCCCC2)nc1-c1ccccc1Cl [compound 146] ?
### Response 5.00 to 5.70

* * *

# target.system: NaV1.3 (Homo sapiens, UniProt Q9NY46)
# Construct: expressed in transfected cells; host or cells: HEK293
# Sequence (Q9NY46 whole entry): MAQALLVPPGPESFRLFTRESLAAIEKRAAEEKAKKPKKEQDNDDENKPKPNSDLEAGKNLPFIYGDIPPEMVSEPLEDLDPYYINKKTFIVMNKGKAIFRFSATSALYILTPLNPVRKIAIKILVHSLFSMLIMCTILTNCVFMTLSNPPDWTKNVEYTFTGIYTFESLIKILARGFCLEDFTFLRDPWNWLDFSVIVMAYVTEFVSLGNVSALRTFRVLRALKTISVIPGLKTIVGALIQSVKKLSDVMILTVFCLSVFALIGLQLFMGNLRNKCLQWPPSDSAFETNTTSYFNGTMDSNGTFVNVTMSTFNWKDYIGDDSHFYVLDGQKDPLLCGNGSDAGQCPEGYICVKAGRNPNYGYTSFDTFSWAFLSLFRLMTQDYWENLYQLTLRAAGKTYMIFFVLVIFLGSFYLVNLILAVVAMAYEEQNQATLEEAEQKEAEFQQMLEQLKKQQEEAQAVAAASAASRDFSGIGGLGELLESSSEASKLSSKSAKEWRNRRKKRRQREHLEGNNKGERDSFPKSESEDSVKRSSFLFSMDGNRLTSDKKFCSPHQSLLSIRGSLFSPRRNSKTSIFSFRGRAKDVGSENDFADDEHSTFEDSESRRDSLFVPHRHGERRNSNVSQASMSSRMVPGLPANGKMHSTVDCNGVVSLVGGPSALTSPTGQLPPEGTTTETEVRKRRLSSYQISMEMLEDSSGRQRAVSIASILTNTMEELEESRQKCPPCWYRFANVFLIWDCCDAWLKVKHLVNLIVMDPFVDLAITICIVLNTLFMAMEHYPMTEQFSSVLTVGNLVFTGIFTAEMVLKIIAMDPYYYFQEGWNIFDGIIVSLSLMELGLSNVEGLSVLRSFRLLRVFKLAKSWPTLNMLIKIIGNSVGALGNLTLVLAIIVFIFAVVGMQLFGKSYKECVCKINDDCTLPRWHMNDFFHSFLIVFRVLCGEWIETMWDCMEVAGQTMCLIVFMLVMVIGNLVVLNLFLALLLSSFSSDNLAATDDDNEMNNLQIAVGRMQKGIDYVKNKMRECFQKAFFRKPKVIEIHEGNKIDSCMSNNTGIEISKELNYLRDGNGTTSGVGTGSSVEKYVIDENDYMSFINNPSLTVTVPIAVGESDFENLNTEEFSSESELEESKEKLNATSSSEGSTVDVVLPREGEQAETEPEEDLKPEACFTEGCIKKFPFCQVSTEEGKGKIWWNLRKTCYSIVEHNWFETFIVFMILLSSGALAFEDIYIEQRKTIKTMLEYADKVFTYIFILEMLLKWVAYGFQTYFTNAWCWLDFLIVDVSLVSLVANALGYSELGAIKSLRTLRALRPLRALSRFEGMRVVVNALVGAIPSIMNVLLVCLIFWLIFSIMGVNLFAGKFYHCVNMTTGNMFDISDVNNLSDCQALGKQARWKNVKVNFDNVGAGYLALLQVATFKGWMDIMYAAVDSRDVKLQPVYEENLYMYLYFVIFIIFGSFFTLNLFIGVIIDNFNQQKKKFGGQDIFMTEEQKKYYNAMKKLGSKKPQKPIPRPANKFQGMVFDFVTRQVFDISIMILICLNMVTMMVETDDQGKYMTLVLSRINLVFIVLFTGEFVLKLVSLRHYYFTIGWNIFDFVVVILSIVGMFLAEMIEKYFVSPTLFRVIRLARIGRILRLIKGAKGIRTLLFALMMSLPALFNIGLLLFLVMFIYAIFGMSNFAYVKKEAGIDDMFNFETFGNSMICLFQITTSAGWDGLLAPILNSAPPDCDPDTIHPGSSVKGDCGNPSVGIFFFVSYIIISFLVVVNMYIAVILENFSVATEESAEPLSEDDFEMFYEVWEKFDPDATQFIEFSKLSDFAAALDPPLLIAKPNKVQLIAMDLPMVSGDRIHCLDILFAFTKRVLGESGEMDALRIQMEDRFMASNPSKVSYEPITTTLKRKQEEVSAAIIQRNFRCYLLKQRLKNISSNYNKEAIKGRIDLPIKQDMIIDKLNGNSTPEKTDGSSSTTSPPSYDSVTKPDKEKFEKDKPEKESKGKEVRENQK
# assay.info: VIPR optical membrane potential assay with electrical stimulation, NaV1.3
# Assay type: cell-based
# test.parameters: Table 9, NaV 1.3 receptors
pIC50: −log10 of the molar value.
Could you please report measured pIC50 for the items listed next?

Before answering, review these 5 worked examples.
{"columns": ["molecule", "pIC50"],
 "data": [
  ["COc1ccc(N(C(=O)c2cnc(N3CCCCC3)nc2-c2ccccc2F)C(C)C)cc1 [compound 108]", "5.00 to 5.70"],
  ["CC(C)N(C(=O)c1cnc(N2CCCCC2)nc1-c1ccccc1F)c1cccc2ccccc12 [compound 112]", "5.00 to 5.70"],
  ["O=C(c1cnc(N2CCOCC2)nc1-c1ccccc1F)N1Cc2ccccc2C1 [compound 187]", "< 5.00"],
  ["CC(C)N(C(=O)c1cnc(N2CCOCC2)nc1-c1ccccc1F)c1cccc(N(C)C)c1 [compound 111]", "< 5.00"],
  ["N#Cc1ccc(-c2nc(NCc3ccc4c(c3)OCO4)ncc2C(=O)N2CCCC2)cc1 [compound 260]", "< 5.00"]
]}

Parameter requested: pIC50. Apply to each item below.
1. CC(C)N(C(=O)c1cnc(N2CCCCC2)nc1-c1ccccc1F)c1cccc([N+](=O)[O-])c1 [compound 140]
2. CC(C)(C)c1ccc(CN(C(=O)c2cnc(N3CCSCC3)nc2-c2ccccc2F)C2CC2)cc1 [compound 2]
3. Cc1cccc(-c2nc(NCc3ccccc3)ncc2C(=O)N2CCOCC2)c1 [compound 304]
4. CN(C(=O)c1cnc(NCC2CC2)nc1-c1ccc(C#N)cc1)C1CCCCC1 [compound 298]
5. COCCCNC(=O)c1cnc(NCC2CC2)nc1-c1cccc(C)c1 [compound 257]
6. COCCNc1ncc(C(=O)N(C)C2CCCCC2)c(-c2ccccc2F)n1 [compound 276]
7. COc1cccc(CN(C(=O)c2cnc(N3Cc4ccccc4C3)nc2-c2ccccc2F)C(C)C)c1 [compound 134]
8. CCC1CCC(C)N(C(=O)c2cnc(NCCCOC)nc2-c2ccc(C#N)cc2)C1 (stereo not shown) [compound 294]

### Response
1. 5.00 to 5.70
2. < 5.00
3. < 5.00
4. < 5.00
5. < 5.00
6. < 5.00
7. 5.00 to 5.70
8. < 5.00

Please give pIC50, item by item, for the list that follows.
1. O=C(c1cnc(NCc2ccc3c(c2)OCO3)nc1-c1ccc(-c2ccccc2)cc1)N1CCCCC1 [compound 342]
2. Cc1nc(N2CCCCC2)nc(-c2ccccc2F)c1C(=O)N(Cc1ccc2c(c1)CCO2)C1CC1 [compound 192]
3. Cc1nc(N2CCOCC2)nc(-c2ccccc2F)c1C(=O)N(Cc1ccccc1)C1CCCC1 [compound 143]
4. CC(=O)NCCNc1ncc(C(=O)N(Cc2ccccc2)C(C)C)c(-c2ccc(C#N)cc2)n1 [compound 319]
5. N#Cc1ccc(-c2nc(NCC3CCCCC3)ncc2C(=O)N2CCCCC2)cc1 [compound 245]
6. O=C(NCCOc1ccccc1)c1cnc(N2CCOCC2)nc1-c1ccc(Oc2ccccc2)cc1 [compound 121]

### Response
1. < 5.00
2. < 5.00
3. 5.00 to 5.70
4. < 5.00
5. < 5.00
6. 5.00 to 5.70
